Test system: Trypanosoma cruzi
Assay notes: Trypanosoma cruzi phosphomannomutase and mannose-1-phosphate guanylyltransferase assay
Format: functional
Set-up: scale not given: direction of the effect not stated beside the values
Conditions used: 10 µM
Catalogue of molecules with associated Percent Effect
Result type: Percent Effect (%)

[[record]]
molecule = "Cn1nc(CNC(=O)C2COc3ccccc3O2)cc1C1CC1 (stereo not given)"
assay_system = "Trypanosoma cruzi"
unit_name = "%"
measured_result = -3.85

[[record]]
molecule = "CCN1CCN(c2ccc(CNC(=O)c3ccc(Cl)o3)cn2)CC1"
assay_system = "Trypanosoma cruzi"
unit_name = "%"
measured_result = 2.41

[[record]]
molecule = "CC(C)c1n[nH]c(C2CN(C(=O)CCCn3cccn3)CCO2)n1 (stereo not given)"
assay_system = "Trypanosoma cruzi"
unit_name = "%"
measured_result = -2.43

[[record]]
molecule = "COc1ccc(CN2C[C@@H]3OCCN(CC4CCCO4)[C@@H]3C2)cc1 (stereo not given in full)"
assay_system = "Trypanosoma cruzi"
unit_name = "%"
measured_result = 6.16

[[record]]
molecule = "Fc1cccnc1OC[C@@]12CCO[C@@H]1CCN(CC1CCOCC1)C2"
assay_system = "Trypanosoma cruzi"
unit_name = "%"
measured_result = 4.01

[[record]]
molecule = "COCCOc1cccc(C(=O)N2CCCC(n3ccnc3C)C2)c1 (stereo not given)"
assay_system = "Trypanosoma cruzi"
unit_name = "%"
measured_result = 4.85

[[record]]
molecule = "Cc1ccc(-c2cc(N)c(=O)n(CC(=O)NCC3CCCCC3)n2)s1"
assay_system = "Trypanosoma cruzi"
unit_name = "%"
measured_result = -6.13

[[record]]
molecule = "c1coc(-c2nnc(CN3CCCC(CN4CCCCCC4)C3)o2)c1 (stereo not given)"
assay_system = "Trypanosoma cruzi"
unit_name = "%"
measured_result = 8.67

[[record]]
molecule = "CCN(CC)C(=O)c1ccn(COc2ccccc2)n1"
assay_system = "Trypanosoma cruzi"
unit_name = "%"
measured_result = 4.32

[[record]]
molecule = "CC(C)Nc1ccc2nc(C3CCN(C(C)C)CC3)nn2c1"
assay_system = "Trypanosoma cruzi"
unit_name = "%"
measured_result = 3.91

[[record]]
molecule = "Cc1ccc(N2CCCN(C(=O)C3(C#N)CCCCC3)CC2)nn1"
assay_system = "Trypanosoma cruzi"
unit_name = "%"
measured_result = 6.39

[[record]]
molecule = "CN1[C@@H](C(=O)NCC2CC2)C[C@@H]2CN(Cc3ccco3)C[C@@H]21"
assay_system = "Trypanosoma cruzi"
unit_name = "%"
measured_result = -6.57

[[record]]
molecule = "CCOc1cccc2c1OCC(C(=O)NS(=O)(=O)Cc1ccccc1)=C2"
assay_system = "Trypanosoma cruzi"
unit_name = "%"
measured_result = -8.59

[[record]]
molecule = "Cc1[nH]ncc1CCCNC(=O)Nc1ccc(C#N)cc1"
assay_system = "Trypanosoma cruzi"
unit_name = "%"
measured_result = 3.28

[[record]]
molecule = "Fc1ccccc1Cc1noc(CN2CCCC(CN3CCCC3)C2)n1 (stereo not given)"
assay_system = "Trypanosoma cruzi"
unit_name = "%"
measured_result = 7.86


---

Measured Percent Effect of individual entries
Assay system: Chromo domain-containing protein 1 (Saccharomyces cerevisiae (strain ATCC 204508 / S288c) (Baker's yeast)) (UniProt P32657)
Sequence (P32657 whole entry, the tested form may be a part): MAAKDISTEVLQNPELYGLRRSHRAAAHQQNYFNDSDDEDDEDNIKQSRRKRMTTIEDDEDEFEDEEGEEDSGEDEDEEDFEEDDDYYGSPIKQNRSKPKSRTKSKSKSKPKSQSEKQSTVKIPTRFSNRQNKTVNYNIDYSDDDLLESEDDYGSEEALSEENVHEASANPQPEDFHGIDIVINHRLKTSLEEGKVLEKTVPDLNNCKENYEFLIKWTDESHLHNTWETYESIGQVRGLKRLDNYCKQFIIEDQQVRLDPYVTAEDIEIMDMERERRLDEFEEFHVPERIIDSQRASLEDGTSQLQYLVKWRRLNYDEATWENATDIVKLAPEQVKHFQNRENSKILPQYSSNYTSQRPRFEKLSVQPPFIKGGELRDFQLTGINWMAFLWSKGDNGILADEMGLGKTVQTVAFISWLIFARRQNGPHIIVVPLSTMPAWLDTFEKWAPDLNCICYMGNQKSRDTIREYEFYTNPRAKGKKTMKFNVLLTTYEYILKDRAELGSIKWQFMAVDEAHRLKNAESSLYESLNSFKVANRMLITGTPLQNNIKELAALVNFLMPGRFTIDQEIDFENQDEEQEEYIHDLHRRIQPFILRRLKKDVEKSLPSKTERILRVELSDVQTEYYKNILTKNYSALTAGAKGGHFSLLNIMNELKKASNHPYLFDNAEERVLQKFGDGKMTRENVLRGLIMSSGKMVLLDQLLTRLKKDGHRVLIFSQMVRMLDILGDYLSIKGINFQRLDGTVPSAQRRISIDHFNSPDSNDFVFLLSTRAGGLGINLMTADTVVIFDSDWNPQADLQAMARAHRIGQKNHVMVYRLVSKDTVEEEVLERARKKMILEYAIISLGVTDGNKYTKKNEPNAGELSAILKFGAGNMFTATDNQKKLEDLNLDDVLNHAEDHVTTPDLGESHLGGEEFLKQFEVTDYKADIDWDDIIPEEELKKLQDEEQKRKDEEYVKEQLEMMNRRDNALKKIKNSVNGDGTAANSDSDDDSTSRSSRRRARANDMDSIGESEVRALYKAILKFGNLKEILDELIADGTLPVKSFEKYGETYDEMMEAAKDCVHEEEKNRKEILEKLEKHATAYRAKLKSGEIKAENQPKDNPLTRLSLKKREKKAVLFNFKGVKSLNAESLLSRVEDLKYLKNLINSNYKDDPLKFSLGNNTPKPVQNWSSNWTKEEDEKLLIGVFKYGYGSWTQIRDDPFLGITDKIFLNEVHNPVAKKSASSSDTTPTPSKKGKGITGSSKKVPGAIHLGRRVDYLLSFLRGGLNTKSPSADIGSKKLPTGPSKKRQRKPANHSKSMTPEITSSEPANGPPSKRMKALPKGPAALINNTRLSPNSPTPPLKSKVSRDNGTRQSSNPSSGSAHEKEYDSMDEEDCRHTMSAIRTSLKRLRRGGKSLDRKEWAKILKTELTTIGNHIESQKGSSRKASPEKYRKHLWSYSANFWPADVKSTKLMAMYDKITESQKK
Assay notes: ScCHD-1 Enzyme Inhibition Assay; note: in the data most compounds retested in dose-response had high values
Assay type: functional
Set-up: scale not given: direction of the effect not stated beside the values
Conditions used: 30 µM
Result type: Percent Effect (%)

[[record]]
molecule = "CC(C)c1cc(C(F)(F)F)n2nc(CCC(=O)O)nc2n1"
measured_result = -17.9

[[record]]
molecule = "Cc1ccccc1N1CC2(CCN(S(=O)(=O)C3CC3)C2)CC1=O (stereo not given)"
measured_result = -8.76

[[record]]
molecule = "Cc1cnn(CC2CCCCN2CC(=O)Nc2c(C)n[nH]c2C)c1 (stereo not given)"
measured_result = -14.4

[[record]]
molecule = "O=C(NCc1ccco1)[C@H]1C[C@H]2OCC[C@H]2N(C(=O)c2ccco2)C1"
measured_result = 63.9

[[record]]
molecule = "Cc1ccc(N2CCN(C(=O)COc3ccccc3)CC2)nn1"
measured_result = -6.41

[[record]]
molecule = "Cn1cc(NC(=O)N2CCC(NS(C)(=O)=O)CC2)ccc1=O"
measured_result = -0.842

[[record]]
molecule = "CN(C)[C@@H]1CCN(C(=O)NC2CCCC2)[C@H]1Cc1cnn(C)c1"
measured_result = 1.31

[[record]]
molecule = "COCC1c2nnn(CC3CC3)c2CCN1C(=O)c1ccnnc1 (stereo not given)"
measured_result = -10.1

[[record]]
molecule = "CC(=O)NC1CCCN(C(=O)c2ccc(Br)cc2O)C1 (stereo not given)"
measured_result = -2.5

[[record]]
molecule = "Cc1cnn(CC2CCCN2C(=O)c2ccc(OC(C)C)nc2)c1 (stereo not given)"
measured_result = 2.64

[[record]]
molecule = "O=C1CCC2(CCN(Cc3nccs3)CC2)N1Cc1ccccc1"
measured_result = -0.585

[[record]]
molecule = "COc1ccc(CN2CCN(C(C)=O)CC3(CC(=O)N(C)C3)C2)cc1 (stereo not given)"
measured_result = -6.64

[[record]]
molecule = "c1cc2n(n1)CC(CNCc1ccc(OC3CCCCC3)nc1)CN2 (stereo not given)"
measured_result = -7.9

[[record]]
molecule = "CCCN1CC(C(=O)Nc2ccccn2)CC1=O (stereo not given)"
measured_result = -4.7

[[record]]
molecule = "CC(=O)NC1CCCN(C(=O)Nc2cnc3c(cnn3C(C)C)c2)C1 (stereo not given)"
measured_result = -5.36

[[record]]
molecule = "CC(C)C(=O)N1CCCC(c2cc(C(F)F)n3ncnc3n2)C1 (stereo not given)"
measured_result = -0.33

[[record]]
molecule = "O=C1CCC2(CCCN(C(=O)c3cscn3)C2)CN1CCc1c[nH]cn1 (stereo not given)"
measured_result = -5.62

[[record]]
molecule = "CNC(=O)CS(=O)(=O)C1CCN(S(=O)(=O)c2c(F)cccc2F)CC1"
measured_result = -1.05

[[record]]
molecule = "O=C(NCCN1CCNCC1)c1nc2ccccc2c(=O)[nH]1"
measured_result = -7.33

[[record]]
molecule = "COc1cccc(CNC(=O)N2CCN(Cc3cc(C)on3)CC2)c1"
measured_result = -5.16

[[record]]
molecule = "Cc1cccc(-c2noc(CN3CCc4nn(C)c(=O)cc4C3)n2)c1"
measured_result = 4.01

[[record]]
molecule = "CCc1n[nH]c(C2CN(C(=O)c3ccsc3)CCO2)n1 (stereo not given)"
measured_result = -13.8

[[record]]
molecule = "COc1cccc2c1OCC(C(=O)NC1CCN(S(C)(=O)=O)CC1)C2 (stereo not given)"
measured_result = 93.6

[[record]]
molecule = "O=C(C1CCOCC1)N1CC[C@H]2C[C@@H](c3ccncn3)O[C@@H]2C1"
measured_result = 25.1

[[record]]
molecule = "Cc1cc(C)cc(-c2cccc(CC3(C(=O)O)CCOCC3)c2)c1"
measured_result = -6.99


---

Assay system: Arginase-2, mitochondrial (Homo sapiens)
Assay notes: in vitro enzyme assay to detect the production of urea directly proportional to the activity of Arginase II; note: in the data most compounds retested in dose-response had high values
Assay type: functional
Design: scale not given: direction of the effect not stated beside the values
Conditions used: 33.3 µM
Overview of recorded Percent Effect for various compounds
Result type: Percent Effect (%)

[[record]]
compound = "COc1cccc(CNC(=O)N2CCN(Cc3cc(C)on3)CC2)c1"
unit_name = "%"
measured_result = 0.38

[[record]]
compound = "CCc1nc(CN2CCN(C(=O)c3cnccn3)CC2)cs1"
unit_name = "%"
measured_result = -5.73

[[record]]
compound = "CCS(=O)(=O)N1CCO[C@H]2[C@H](OCCCn3cccn3)CC[C@@H]21"
unit_name = "%"
measured_result = -47.1

[[record]]
compound = "CNS(=O)(=O)c1ccc(C(=O)N2CCCC(n3cccn3)C2)cc1 (stereo unspecified)"
unit_name = "%"
measured_result = -4.21

[[record]]
compound = "O=S(=O)(CCCN1CCCC1Cn1cncn1)c1ccccc1 (stereo unspecified)"
unit_name = "%"
measured_result = -4.71

[[record]]
compound = "CC(C)c1nn(C)c(N(C)C)c1CNCc1cccc(CN(C)C)c1"
unit_name = "%"
measured_result = 3.6

[[record]]
compound = "Cc1ccc2oc(C(=O)N3CCCC(c4noc(C)n4)C3)cc2n1 (stereo unspecified)"
unit_name = "%"
measured_result = 4.51

[[record]]
compound = "COCCN1C[C@@H](C)[C@@]2(COCCN(C(=O)c3cnc(C)cn3)C2)C1"
unit_name = "%"
measured_result = -21.3

[[record]]
compound = "CC(CN1CCC2(CC1)c1nc[nH]c1CCN2S(C)(=O)=O)C(F)(F)F (stereo unspecified)"
unit_name = "%"
measured_result = -1.77

[[record]]
compound = "Cc1ccc(C(=O)NC(CN2CCCC2=O)c2ccccc2)c(=O)[nH]1 (stereo unspecified)"
unit_name = "%"
measured_result = 29.6

[[record]]
compound = "Cc1nc(N2CCN(C)CC2)ncc1C(=O)N1CCC(O)(CO)CC1"
unit_name = "%"
measured_result = 0.744

